# target_under_test: Galectin-9N (Homo sapiens)
# Construct: N and C respectively represent N-terminal side carbohydrate-recognition domain and C-terminal side carbohydrate-recognition domain; made in house
# Sequence (O00182 17-148 limits assumed): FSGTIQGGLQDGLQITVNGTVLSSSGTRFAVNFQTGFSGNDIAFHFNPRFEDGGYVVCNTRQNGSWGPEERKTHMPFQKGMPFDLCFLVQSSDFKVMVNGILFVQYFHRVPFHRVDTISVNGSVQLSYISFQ
# experimental_details: FAC affinity test on galectin-immobilized column
# Type: binding
# condition_summary: pyridyl-aminated carbohydrate; galectin-9N immobilized 3.6 mg/ml; less than 5 μl = below interaction detection limit
As shown below, each of these molecules has a reported V − V0 Value value.

molecule	target_under_test	V − V0 Value
CC(=O)N[C@H]1[C@H](O[C@H]2[C@H](O)[C@@H](O)[C@H](O[C@H]3[C@@H](O)[C@@H](CO)O[C@@H](O[C@H]4[C@H](O)[C@@H](O)[C@H](O[C@H]5[C@@H](O)[C@@H](CO)OC(O)[C@@H]5NC(C)=O)O[C@@H]4C(=O)O)[C@@H]3NC(C)=O)O[C@@H]2C(=O)O)O[C@H](CO)[C@H](O)[C@@H]1O[C@@H]1O[C@H](C(=O)O)[C@@H](O)[C@H](O)[C@H]1O (some centres unmarked)	Galectin-9N (Homo sapiens)	33.3 ± 3.0 µL
CC(=O)N[C@H]1[C@H](O[C@H]2[C@@H](O)[C@@H](COS(=O)(=O)O)O[C@@H](O[C@H]3[C@H](O)[C@@H](NC(C)=O)C(O)O[C@@H]3COS(=O)(=O)O)[C@@H]2O)O[C@H](COS(=O)(=O)O)[C@@H](O)[C@@H]1O (some centres unmarked)	Galectin-9N (Homo sapiens)	<5.0 µL
CC(=O)NC1C(O)OC(COS(=O)(=O)[O-])C(OC2OC(COS(=O)(=O)[O-])C(O)C(OC3OC(COS(=O)(=O)[O-])C(OC4OC(COS(=O)(=O)[O-])C(O)C(O)C4O)C(O)C3NC(C)=O)C2O)C1O.[Na+].[Na+].[Na+].[Na+] (centres unmarked)	Galectin-9N (Homo sapiens)	<5.0 µL
CC(=O)N[C@H]1[C@H](O[C@H]2[C@@H](O)[C@@H](CO)OC(O)[C@@H]2O)O[C@H](CO)[C@@H](O[C@@H]2O[C@H](CO)[C@H](O)[C@H](O)[C@H]2O)[C@@H]1O (some centres unmarked)	Galectin-9N (Homo sapiens)	5.1 ± 1.3 µL
CC(=O)NC1C(OC2C(C(=O)O)OC(OC3C(O)C(CO)OC(OC4C(C(=O)O)OC(OC5C(O)C(CO)OC(OC6C(C(=O)O)OC(OC7C(O)C(CO)OC(OC8C(C(=O)O)OC(OC9C(O)C(CO)OC(O)C9NC(C)=O)C(O)C8O)C7NC(C)=O)C(O)C6O)C5NC(C)=O)C(O)C4O)C3NC(C)=O)C(O)C2O)OC(CO)C(O)C1O (centres unmarked)	Galectin-9N (Homo sapiens)	199.4 µL
CC(=O)NC1C(OC2C(C(=O)O)OC(OC3C(O)C(CO)OC(OC4C(C(=O)O)OC(OC5C(O)C(CO)OC(OC6C(C(=O)O)OC(OC7C(O)C(CO)OC(OC8C(C(=O)O)OC(OC9C(O)C(CO)OC(OC%10C(C(=O)O)OC(OC%11C(O)C(CO)OC(O)C%11NC(C)=O)C(O)C%10O)C9NC(C)=O)C(O)C8O)C7NC(C)=O)C(O)C6O)C5NC(C)=O)C(O)C4O)C3NC(C)=O)C(O)C2O)OC(CO)C(O)C1O (centres unmarked)	Galectin-9N (Homo sapiens)	218.8 µL
CC(=O)N[C@H]1[C@H](O[C@H]2[C@H](O)[C@@H](O)[C@H](O[C@H]3[C@@H](O)[C@@H](CO)O[C@@H](O[C@H]4[C@H](O)[C@@H](O)[C@H](O[C@H]5[C@@H](O)[C@@H](CO)O[C@@H](O[C@H]6[C@H](O)[C@@H](O)[C@H](O[C@H]7[C@@H](O)[C@@H](CO)OC(O)[C@@H]7NC(C)=O)O[C@@H]6C(=O)O)[C@@H]5NC(C)=O)O[C@@H]4C(=O)O)[C@@H]3NC(C)=O)O[C@@H]2C(=O)O)O[C@H](CO)[C@H](O)[C@@H]1O[C@@H]1O[C@H](C(=O)O)[C@@H](O)[C@H](O)[C@H]1O (some centres unmarked)	Galectin-9N (Homo sapiens)	116.2 µL
CC(=O)NC1C(O)OC(COS(=O)(=O)O)C(OC2OC(COS(=O)(=O)O)C(O)C(OC3OC(COS(=O)(=O)O)C(OC4OC(CO)C(O)C(OC5(C(=O)O)CC(O)C(NC(C)=O)C(C(O)C(O)CO)O5)C4O)C(O)C3NC(C)=O)C2O)C1O (centres unmarked)	Galectin-9N (Homo sapiens)	<5.0 µL

Hello, the source for this data is patent US7687609B2, in case you need it.
